The origin of these recorded values is ChEMBL document CHEMBL1687766.

system: Staphylococcus haemolyticus; assay: Antimicrobial activity against vancomycin-intermediate Staphylococcus haemolyticus after 24 hrs by microdilution method; format: functional; conditions: Staphylococcus haemolyticus, 24 h
endpoint.label: MIC90
Please state the value followed by its unit.

### Prompt Form field: reported MIC90 of `CCCCCCCCCC(=O)N[C@@H](Cc1c[nH]c2ccccc12)C(=O)N[C@H](CC(N)=O)C(=O)N[C@@H](CC(=O)O)C(=O)N[C@@H]1C(=O)NCC(=O)N[C@@H](CCCN)C(=O)N[C@@H](CC(=O)O)C(=O)N[C@H](C)C(=O)N[C@@H](CC(=O)O)C(=O)NCC(=O)N[C@H](CO)C(=O)N[C@@H]([C@H](C)CC(=O)O)C(=O)N[C@@H](CC(=O)c2ccccc2N)C(=O)O[C@@H]1C`
### Response 1 µg/mL

---

test: Plasma protein binding in human; assay type: ADME, cell-free; conditions: read-out: PPB (converted)
endpoint.label: fraction unbound
Lab note: write the figure by itself, no unit.

### Prompt # fraction unbound lookup, item `CN[C@H](CC(C)C)C(=O)N[C@H]1C(=O)N[C@@H](CC(N)=O)C(=O)N[C@H]2C(=O)N[C@H]3C(=O)N[C@H](C(=O)N[C@H](C(=O)NCCCO/N=C(\C(=O)N[C@@H]4C(=O)N5C(C(=O)[O-])=C(C[n+]6ccccc6)CS[C@H]45)c4nc(N)sc4Cl)c4cc(O)cc(O)c4-c4cc3ccc4O)[C@H](O)c3ccc(c(Cl)c3)Oc3cc2cc(c3O[C@@H]2O[C@H](CO)[C@@H](O)[C@H](O)[C@H]2O[C@H]2C[C@](C)(N)[C@H](O)[C@H](C)O2)Oc2ccc(cc2Cl)[C@H]1O`
### Response 0.51
